Measurement notes: Half life in CD-1 mouse plasma at 0.4 mg/kg, iv by LC-MS/MS analysis
Assay type: ADME, organism-based
Measurement kind: half-life (min)

[[record]]
chemical_structure = "Cc1cc(-c2n[nH]c3ccc(N[C@@H]4CCCc5cc(C#N)ccc54)cc23)ccn1"
measurement_kind = "half-life"
unit_symbol = "min"
observed_measurement = 24

[[record]]
chemical_structure = "N#Cc1ccc2c(c1)CCC[C@@H]2Nc1ccc2[nH]nc(-c3ccncc3)c2c1"
measurement_kind = "half-life"
unit_symbol = "min"
observed_measurement = 42


1: N#Cc1ccc2c(c1)OCC[C@H]2Nc1ccc2[nH]nc(-c3ccncc3)c2c1
2: N#Cc1ccc2c(c1)CCC[C@H]2Nc1ccc2[nH]nc(-c3ccnc(N4CCOCC4)c3)c2c1
query: Which numeric half-life is bigger, that of 1 or that of 2 ? Bench note: the answer is the label of the chosen record.
result: 2

---

Measurement notes: Tmax in CD-1 mouse plasma at 2 mg/kg, po by LC-MS/MS analysis
Type: ADME, organism-based
Measurement kind: Tmax (min)

[[record]]
chemical_structure = "N#Cc1ccc2c(c1)CCC[C@@H]2Nc1ccc2[nH]nc(-c3ccncc3)c2c1"
observed_measurement = 30

[[record]]
chemical_structure = "N#Cc1ccc2c(c1)CCC[C@H]2Nc1ccc2[nH]nc(-c3ccnc(N4CCOCC4)c3)c2c1"
observed_measurement = 30


I: N#Cc1ccc2c(c1)OCC[C@H]2Nc1ccc2[nH]nc(-c3ccncc3)c2c1
II: Cc1cc(-c2n[nH]c3ccc(N[C@@H]4CCCc5cc(C#N)ccc54)cc23)ccn1
query: Quick one: lower Tmax, I or II ? Bench note: the answer is the label of the chosen record.
result: I
(I: 30 min, II: 3000 min)

---

Measurement notes: MRT in CD-1 mouse plasma at 0.4 mg/kg, iv by LC-MS/MS analysis
Type: ADME, organism-based
Measurement kind: MRT (min)

[[record]]
chemical_structure = "N#Cc1ccc2c(c1)OCC[C@H]2Nc1ccc2[nH]nc(-c3ccncc3)c2c1"
observed_measurement = 24.6

[[record]]
chemical_structure = "N#Cc1ccc2c(c1)CCC[C@H]2Nc1ccc2[nH]nc(-c3ccnc(N4CCOCC4)c3)c2c1"
observed_measurement = 51.6


P: N#Cc1ccc2c(c1)CCC[C@@H]2Nc1ccc2[nH]nc(-c3ccncc3)c2c1
Q: Cc1cc(-c2n[nH]c3ccc(N[C@@H]4CCCc5cc(C#N)ccc54)cc23)ccn1
query: Which numeric MRT is bigger, that of P or that of Q ? Bench note: the answer is the label of the chosen record.
result: P

---

Measurement notes: Ratio of drug level in brain to plasma in CD-1 mouse plasma at 2 mg/kg, po by LC-MS/MS analysis
Assay type: ADME, organism-based
Applied conditions: brain and plasma, read-out: BPR
Measurement kind: Kp

[[record]]
chemical_structure = "Cc1cc(-c2n[nH]c3ccc(N[C@@H]4CCCc5cc(C#N)ccc54)cc23)ccn1"
observed_measurement = 0.1


I: N#Cc1ccc2c(c1)CCC[C@H]2Nc1ccc2[nH]nc(-c3ccnc(N4CCOCC4)c3)c2c1
II: N#Cc1ccc2c(c1)CCC[C@@H]2Nc1ccc2[nH]nc(-c3ccncc3)c2c1
III: N#Cc1ccc2c(c1)OCC[C@H]2Nc1ccc2[nH]nc(-c3ccncc3)c2c1
query: List by increasing Kp. Order the labels as requested and give them as your answer.
result: I, III, II

---

Measurement notes: MRT in CD-1 mouse plasma at 2 mg/kg, po by LC-MS/MS analysis
Type: ADME, organism-based
Measurement kind: MRT (h)

[[record]]
chemical_structure = "Cc1cc(-c2n[nH]c3ccc(N[C@@H]4CCCc5cc(C#N)ccc54)cc23)ccn1"
measurement_kind = "MRT"
unit_symbol = "h"
observed_measurement = 2.7

[[record]]
chemical_structure = "N#Cc1ccc2c(c1)OCC[C@H]2Nc1ccc2[nH]nc(-c3ccncc3)c2c1"
measurement_kind = "MRT"
unit_symbol = "h"
observed_measurement = 2.42

[[record]]
chemical_structure = "N#Cc1ccc2c(c1)CCC[C@@H]2Nc1ccc2[nH]nc(-c3ccncc3)c2c1"
measurement_kind = "MRT"
unit_symbol = "h"
observed_measurement = 2.54

[[record]]
chemical_structure = "N#Cc1ccc2c(c1)CCC[C@H]2Nc1ccc2[nH]nc(-c3ccnc(N4CCOCC4)c3)c2c1"
measurement_kind = "MRT"
unit_symbol = "h"
observed_measurement = 2.91


---

Measurement notes: AUC infinity in CD-1 mouse plasma at 2 mg/kg, po by LC-MS/MS analysis
Type: ADME, organism-based
Set-up: time infinity, dose 2 mg/kg, route po
Measurement kind: AUC(0-inf) (µM·h)

[[record]]
chemical_structure = "N#Cc1ccc2c(c1)OCC[C@H]2Nc1ccc2[nH]nc(-c3ccncc3)c2c1"
measurement_kind = "AUC(0-inf)"
unit_symbol = "µM·h"
observed_measurement = 1.29

[[record]]
chemical_structure = "N#Cc1ccc2c(c1)CCC[C@@H]2Nc1ccc2[nH]nc(-c3ccncc3)c2c1"
measurement_kind = "AUC(0-inf)"
unit_symbol = "µM·h"
observed_measurement = 1.49


1: N#Cc1ccc2c(c1)CCC[C@H]2Nc1ccc2[nH]nc(-c3ccnc(N4CCOCC4)c3)c2c1
2: Cc1cc(-c2n[nH]c3ccc(N[C@@H]4CCCc5cc(C#N)ccc54)cc23)ccn1
query: Quick one: lower AUC(0-inf), 1 or 2 ? Bench note: the answer is the label of the chosen record.
result: 2
(2: 1.06 µM·h, 1: 1.64 µM·h)

---

Measurement notes: Oral bioavailability in CD-1 mouse plasma at 2 mg/kg by LC-MS/MS analysis
Type: ADME, organism-based
Measurement kind: bioavailability (%)

Please review the following examples before continuing.
[[record]]
chemical_structure = "N#Cc1ccc2c(c1)CCC[C@@H]2Nc1ccc2[nH]nc(-c3ccncc3)c2c1"
measurement_kind = "bioavailability"
unit_symbol = "%"
observed_measurement = 112

[[record]]
chemical_structure = "N#Cc1ccc2c(c1)CCC[C@H]2Nc1ccc2[nH]nc(-c3ccnc(N4CCOCC4)c3)c2c1"
measurement_kind = "bioavailability"
unit_symbol = "%"
observed_measurement = 80


I: N#Cc1ccc2c(c1)OCC[C@H]2Nc1ccc2[nH]nc(-c3ccncc3)c2c1
II: Cc1cc(-c2n[nH]c3ccc(N[C@@H]4CCCc5cc(C#N)ccc54)cc23)ccn1
query: Quick one: lower bioavailability, I or II ? Bench note: the answer is the label of the chosen record.
result: II
